Where these numbers come from: patent US20240059769A1

- system: T1, cynomolgus monkey (cyno) TSLP (cynomolgus monkey, UniProt A0A7N9CAT7 29-159)
- T1 construct: also called cTSLP; cynomolgus TSLP
- T1 sequence (A0A7N9CAT7 entry or part of it): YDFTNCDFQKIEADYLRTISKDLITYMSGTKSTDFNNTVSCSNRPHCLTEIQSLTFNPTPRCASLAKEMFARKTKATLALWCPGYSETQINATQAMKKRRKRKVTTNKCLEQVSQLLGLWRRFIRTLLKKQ
- assay: SPR

- binder: "BDG38.081 (antibody, V domains shown, IgG1) VH: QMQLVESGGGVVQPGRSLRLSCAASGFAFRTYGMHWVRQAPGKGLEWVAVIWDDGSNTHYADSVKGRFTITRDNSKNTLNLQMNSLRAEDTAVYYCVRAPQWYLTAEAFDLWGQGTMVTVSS VL: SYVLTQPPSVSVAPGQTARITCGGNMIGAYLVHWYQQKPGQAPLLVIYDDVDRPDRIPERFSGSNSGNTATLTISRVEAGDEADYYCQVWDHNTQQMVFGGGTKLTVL"
  koff [s⁻¹]: "4.36e-05"
- binder: "BDG38.117 (antibody, V domains shown, IgG1) VH: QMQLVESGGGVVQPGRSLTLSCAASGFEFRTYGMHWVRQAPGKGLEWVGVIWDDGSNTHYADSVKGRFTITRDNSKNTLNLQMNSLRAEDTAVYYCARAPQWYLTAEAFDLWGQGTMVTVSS VL: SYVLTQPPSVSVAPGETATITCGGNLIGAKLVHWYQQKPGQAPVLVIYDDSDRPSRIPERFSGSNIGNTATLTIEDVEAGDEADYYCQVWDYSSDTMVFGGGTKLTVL"
  koff [s⁻¹]: 0.000452
